Target: T1, Human ANGPTL4(26-406)-FLAG-His6-Avi (human, UniProt Q9BY76 24-406, biotin on the C-terminal Avi tag (BirA) where the protein is immobilised)
T1 construct: the text calls it 20 amino acids), then QP, ANGPTL4 26-406 and FLAG-His6-Avi; the signal peptide is left out here; also called full length human ANGPTL4; hANGPTL4
T1 sequence: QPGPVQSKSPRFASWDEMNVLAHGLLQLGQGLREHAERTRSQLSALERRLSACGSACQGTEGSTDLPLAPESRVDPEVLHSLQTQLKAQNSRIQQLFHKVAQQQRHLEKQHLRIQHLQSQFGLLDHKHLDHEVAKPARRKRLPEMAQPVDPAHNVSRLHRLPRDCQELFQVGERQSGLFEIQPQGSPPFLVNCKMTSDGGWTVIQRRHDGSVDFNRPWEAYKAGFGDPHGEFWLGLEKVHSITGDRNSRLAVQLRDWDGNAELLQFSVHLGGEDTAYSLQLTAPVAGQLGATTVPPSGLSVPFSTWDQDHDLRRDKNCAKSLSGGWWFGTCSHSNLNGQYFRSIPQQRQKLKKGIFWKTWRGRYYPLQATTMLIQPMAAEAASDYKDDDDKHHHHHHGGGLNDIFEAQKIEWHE
Experiment: Octet (ForteBio) kinetics, biotinylated antigen on streptavidin sensor, IgG in solution
For each record, write down the corresponding koff.
Please make sure the unit comes right after the number.

Which koff value is on record for NEG319 (antibody, human IgG1, kappa, V domains shown, humanized, hIgG1/kappa, parental antibody 14P18) VH: QVQLVQSGAEVKKPGASVKVSCKASGYTFTSFWITWVRQAPGQGLEWMGDIYPGGANTNYNEKLQGRVTLTVDTSTSTAYMELRSLRSDDTAVYYCARSPPQVGPFDYWGQGTLVTVSS VL: DIQMTQSPSSLSASVGDRVTITCQASEYIINWLAWYQQKPGKAPKLLISGATGLETGVPSRFSGSGSGKDYTFTISSLQPEDIATYYCQQYWSIPWTFGQGTKLEIKR ?
1e-05 s⁻¹

Which koff value is on record for NEG313 (antibody, human IgG1, kappa, V domains shown, humanized, hIgG1/kappa, parental antibody 37P1) VH: QVQLVQSGAEVKKPGASVKVSCKASGYTFNNYWITWVRQAPGQGLEWMGDFYPGGGSTNYNAKLQGRVTLTVDTSTSTAYMELRSLRSDDTAVYYCARSPPQVAPFDYWGQGTLVTVSS VL: DIQMTQSPSSLSASVGDRVTITCQASDYIYHWLGWYQQKPGKAPKLLISGASGLETGVPSRFSGSGSGKDYTFTISSLQPEDIATYYCQQYWSTPWTFGQGTKLEIKR ?
1.1e-05 s⁻¹

Which koff value is on record for NEG318 (antibody, human IgG1, kappa, V domains shown, humanized, hIgG1/kappa, parental antibody 14P18) VH: QVQLVQSGAEVKKPGASVKVSCKASGYTFTSFWITWVRQAPGQGLEWMGDIYPGGATTNYNEKLQGRVTLTVDTSTSTAYMELRSLRSDDTAVYYCARSPPQVGPFDYWGQGTLVTVSS VL: DIQMTQSPSSLSASVGDRVTITCQASDYIYHWLAWYQQKPGKAPKLLISGASSLETGVPSRFSGSGSGKDYTFTISSLQPEDIATYYCQQYWSIPWTFGQGTKLEIKR ?
1.2e-05 s⁻¹

Which koff value is on record for NEG315 (antibody, human IgG1, kappa, V domains shown, humanized, hIgG1/kappa, parental antibody 37P1) VH: QVQLVQSGAEVKKPGASVKVSCKASGYTFTNYWITWVRQAPGQGLEWMGDFYPGGGNTNYNAKLQGRVTLTVDTSTSTAYMELRSLRSDDTAVYYCARSPPQVAPFDYWGQGTLVTVSS VL: DIQMTQSPSSLSASVGDRVTITCQASEYIYNWLGWYQQKPGKAPKLLISGASGLETGVPSRFSGSGSGKDYTFTISSLQPEDIATYYCQQYWSTPWTFGQGTKLEIKR ?
7.9e-06 s⁻¹
